ASSAY COMMENT: activity coefficient (dimensionless); of the first substance listed, at infinite dilution; xn = mol fraction of the nth substance listed
CONDITIONS: 308.15 K; Liquid; Chromatography; x1 = 0
REPORTED METRIC: activity coefficient
Form field (numeric): enter value without unit.

// known answers, use as guide
COMPOUND	ASSAY VALUE
CCCCCCC [heptane] + CCn1cc[n+](C)c1.N#C[B-](C#N)(C#N)C#N	47.9
CC(C)CC(C)(C)C [2,2,4-trimethylpentane] + CCn1cc[n+](C)c1.N#C[B-](C#N)(C#N)C#N	54.3
CCCOCCC [dipropyl ether] + CCn1cc[n+](C)c1.N#C[B-](C#N)(C#N)C#N	8.32
CO [methanol] + CCn1cc[n+](C)c1.N#C[B-](C#N)(C#N)C#N	1.02
C1CCCCCC1 [cycloheptane] + CCn1cc[n+](C)c1.N#C[B-](C#N)(C#N)C#N	19.9
C=CCCCCCC [oct-1-ene] + CCn1cc[n+](C)c1.N#C[B-](C#N)(C#N)C#N	32

Find the measured activity coefficient of Cc1ccccc1 [toluene] + CCn1cc[n+](C)c1.N#C[B-](C#N)(C#N)C#N and report it.
1.67

Find the measured activity coefficient of C#CCCCCCC [1-octyne] + CCn1cc[n+](C)c1.N#C[B-](C#N)(C#N)C#N and report it.
8.48

Find the measured activity coefficient of COC(C)(C)C [2-methoxy-2-methylpropane] + CCn1cc[n+](C)c1.N#C[B-](C#N)(C#N)C#N and report it.
2.86

Find the measured activity coefficient of C1CCCCC1 [cyclohexane] + CCn1cc[n+](C)c1.N#C[B-](C#N)(C#N)C#N and report it.
15.2

Find the measured activity coefficient of CCCCCCCCCC [decane] + CCn1cc[n+](C)c1.N#C[B-](C#N)(C#N)C#N and report it.
177

Find the measured activity coefficient of C#CCCCCC [1-heptyne] + CCn1cc[n+](C)c1.N#C[B-](C#N)(C#N)C#N and report it.
5.66

Find the measured activity coefficient of CCCCCC [hexane] + CCn1cc[n+](C)c1.N#C[B-](C#N)(C#N)C#N and report it.
30.7

Find the measured activity coefficient of CC1CCCCC1 [methylcyclohexane] + CCn1cc[n+](C)c1.N#C[B-](C#N)(C#N)C#N and report it.
22.7

----------
ASSAY COMMENT: activity coefficient (dimensionless); of the first substance listed, at infinite dilution; xn = mol fraction of the nth substance listed
CONDITIONS: 348.15 K; Liquid; Chromatography; x1 = 0
Output yes (1) for records whose activity coefficient is lower than 7, no (0) for records at or above 7.

Worked examples follow.
COMPOUND	LABEL CLASS
CCC(=O)CC [pentan-3-one] + CCn1cc[n+](C)c1.N#C[B-](C#N)(C#N)C#N	yes (1)
CCOCC [diethyl ether] + CCn1cc[n+](C)c1.N#C[B-](C#N)(C#N)C#N	yes (1)
c1ccsc1 [thiophene] + CCn1cc[n+](C)c1.N#C[B-](C#N)(C#N)C#N	yes (1)
C#CCCCCCC [1-octyne] + CCn1cc[n+](C)c1.N#C[B-](C#N)(C#N)C#N	no (0)
C=CCCCCCC [oct-1-ene] + CCn1cc[n+](C)c1.N#C[B-](C#N)(C#N)C#N	no (0)
Cc1ccccc1 [toluene] + CCn1cc[n+](C)c1.N#C[B-](C#N)(C#N)C#N	yes (1)

# TODO verify activity coefficient < 7 strictly for this compound: CCc1ccccc1 [ethylbenzene] + CCn1cc[n+](C)c1.N#C[B-](C#N)(C#N)C#N
yes (1)

# TODO verify activity coefficient < 7 strictly for this compound: CCCOCCC [dipropyl ether] + CCn1cc[n+](C)c1.N#C[B-](C#N)(C#N)C#N
no (0)

# TODO verify activity coefficient < 7 strictly for this compound: CC1CCCCC1 [methylcyclohexane] + CCn1cc[n+](C)c1.N#C[B-](C#N)(C#N)C#N
no (0)

# TODO verify activity coefficient < 7 strictly for this compound: C1CCCCCC1 [cycloheptane] + CCn1cc[n+](C)c1.N#C[B-](C#N)(C#N)C#N
no (0)

# TODO verify activity coefficient < 7 strictly for this compound: C1CCCC1 [cyclopentane] + CCn1cc[n+](C)c1.N#C[B-](C#N)(C#N)C#N
no (0)
